The reported numbers originate from ChEMBL document CHEMBL1129099.

Biological target: Integrin alpha-IIb/beta-3 (Homo sapiens, UniProt P05106+P08514)
Sequence (P05106 27-788 limits assumed): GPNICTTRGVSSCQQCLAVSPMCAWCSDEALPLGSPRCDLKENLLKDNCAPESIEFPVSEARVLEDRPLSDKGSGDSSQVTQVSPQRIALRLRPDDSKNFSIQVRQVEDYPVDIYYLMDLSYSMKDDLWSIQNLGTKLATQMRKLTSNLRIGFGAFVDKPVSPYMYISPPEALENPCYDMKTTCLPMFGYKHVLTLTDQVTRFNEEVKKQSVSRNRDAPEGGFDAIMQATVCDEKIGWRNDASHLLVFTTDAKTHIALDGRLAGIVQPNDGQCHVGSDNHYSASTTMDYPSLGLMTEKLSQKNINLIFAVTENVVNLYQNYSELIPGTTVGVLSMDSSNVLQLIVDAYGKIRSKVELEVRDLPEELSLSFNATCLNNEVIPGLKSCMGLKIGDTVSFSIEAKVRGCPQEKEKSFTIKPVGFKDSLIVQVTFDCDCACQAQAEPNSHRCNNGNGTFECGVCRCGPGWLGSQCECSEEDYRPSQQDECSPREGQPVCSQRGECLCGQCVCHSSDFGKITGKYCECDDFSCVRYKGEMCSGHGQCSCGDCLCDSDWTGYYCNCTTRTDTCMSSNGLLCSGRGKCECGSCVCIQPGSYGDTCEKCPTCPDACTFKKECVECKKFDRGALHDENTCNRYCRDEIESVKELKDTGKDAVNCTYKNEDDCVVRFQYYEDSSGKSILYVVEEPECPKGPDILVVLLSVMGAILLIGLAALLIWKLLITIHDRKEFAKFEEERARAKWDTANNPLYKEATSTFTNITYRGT
Sequence (P08514 32-887 limits assumed): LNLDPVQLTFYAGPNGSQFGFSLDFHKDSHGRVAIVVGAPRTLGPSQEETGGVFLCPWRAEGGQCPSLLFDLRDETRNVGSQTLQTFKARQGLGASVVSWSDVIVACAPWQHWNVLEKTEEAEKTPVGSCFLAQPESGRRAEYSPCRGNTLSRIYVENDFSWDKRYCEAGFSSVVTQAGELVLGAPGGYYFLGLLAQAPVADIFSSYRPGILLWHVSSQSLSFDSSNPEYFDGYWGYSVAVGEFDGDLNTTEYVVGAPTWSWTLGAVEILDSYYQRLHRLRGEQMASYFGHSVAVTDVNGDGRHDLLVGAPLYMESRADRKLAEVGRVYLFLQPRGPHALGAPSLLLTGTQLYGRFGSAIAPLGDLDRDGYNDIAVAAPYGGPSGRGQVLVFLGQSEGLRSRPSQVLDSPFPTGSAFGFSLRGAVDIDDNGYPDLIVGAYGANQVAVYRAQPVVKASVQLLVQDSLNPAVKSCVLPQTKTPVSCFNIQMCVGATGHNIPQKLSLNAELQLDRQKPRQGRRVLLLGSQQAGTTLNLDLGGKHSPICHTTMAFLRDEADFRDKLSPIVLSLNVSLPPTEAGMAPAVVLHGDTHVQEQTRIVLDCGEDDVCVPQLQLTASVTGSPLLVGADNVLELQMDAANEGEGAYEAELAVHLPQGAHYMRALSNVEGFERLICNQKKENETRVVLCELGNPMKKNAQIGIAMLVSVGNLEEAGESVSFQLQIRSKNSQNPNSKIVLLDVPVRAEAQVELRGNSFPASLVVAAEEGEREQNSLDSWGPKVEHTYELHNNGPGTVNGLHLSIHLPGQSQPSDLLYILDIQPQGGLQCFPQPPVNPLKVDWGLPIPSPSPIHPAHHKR
Sequence (P08514 891-1039 limits assumed): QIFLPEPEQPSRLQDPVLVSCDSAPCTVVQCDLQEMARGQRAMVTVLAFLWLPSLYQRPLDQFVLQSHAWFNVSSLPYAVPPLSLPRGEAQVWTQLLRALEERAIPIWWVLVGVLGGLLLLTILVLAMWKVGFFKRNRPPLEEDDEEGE
Test: Inhibition of [125I]- Fg binding to fibrinogen receptor of activated human platelets
measured_endpoint: log10 IC50 (log10 of the value in nM)
The figures below represent log10 of IC50, where IC50 is stated in nM.

Worked set:
molecule: O=C(O)[C@H](CCC(=O)N1CCC(CCCC2CCNCC2)CC1)NS(=O)(=O)c1ccccc1
log10 IC50: 1.48

molecule: O=C(O)[C@H](CCC(=O)N1CCC(CCCC2CCNCC2)CC1)NS(=O)(=O)c1ccc(-c2ccccc2)cc1
log10 IC50: 1.48

molecule: CCCCS(=O)(=O)N[C@H](CCC(=O)O)C(=O)N1CCC(CCCC2CCNCC2)CC1
log10 IC50: 2.11

Q: Which log10 IC50 value belongs to CCCCC(=O)N[C@@H](CCC(=O)N1CCC(CCCC2CCNCC2)CC1)C(=O)O ?
Ans: 2.40

Q: Which log10 IC50 value belongs to CCCCS(=O)(=O)N[C@@H](CCC(=O)N1CCC(CCCC2CCNCC2)CC1)C(=O)O ?
Ans: 2.04

Q: Which log10 IC50 value belongs to O=C(O)CCCC(=O)N1CCC(CCCC2CCNCC2)CC1 ?
Ans: 3.48

Q: Which log10 IC50 value belongs to O=C(O)[C@H](CCC(=O)N1CCC(CCCC2CCNCC2)CC1)NS(=O)(=O)c1ccc2ccccc2c1 ?
Ans: 1.60

Q: Which log10 IC50 value belongs to O=C(O)CCCCC(=O)N1CCC(CCCC2CCNCC2)CC1 ?
Ans: 3.83

Q: Which log10 IC50 value belongs to CCCCCCCCS(=O)(=O)N[C@@H](CCC(=O)N1CCC(CCCC2CCNCC2)CC1)C(=O)O ?
Ans: 1.85

Q: Which log10 IC50 value belongs to O=C(O)[C@H](CCC(=O)N1CCC(CCCC2CCNCC2)CC1)NS(=O)(=O)Cc1ccccc1 ?
Ans: 1.30

Q: Which log10 IC50 value belongs to O=C(O)[C@H](CCC(=O)N1CCC(CCCC2CCNCC2)CC1)NS(=O)(=O)c1cccc2ccccc12 ?
Ans: 1.60

Q: Which log10 IC50 value belongs to CCCCCN[C@@H](CCC(=O)N1CCC(CCCC2CCNCC2)CC1)C(=O)O ?
Ans: 3.92

Q: Which log10 IC50 value belongs to CCCCS(=O)(=O)NC(CC(=O)O)CC(=O)N1CCC(CCCC2CCNCC2)CC1 (configuration not stated) ?
Ans: 2.98

Q: Which log10 IC50 value belongs to CCCc1ccc(S(=O)(=O)N[C@@H](CCC(=O)N2CCC(CCCC3CCNCC3)CC2)C(=O)O)cc1 ?
Ans: 1.00

---

Molecular target: Integrin alpha-IIb/beta-3 (Homo sapiens, UniProt P05106+P08514)
Assay: Inhibition of [125I]- Fg binding to fibrinogen receptor of activated human platelets
A collection of compounds and their measured IC50

Worked set:
smiles_text: O=C(O)CCC(=O)N1CCC(CCCC2CCNCC2)CC1
IC50: > 25 µM
//
smiles_text: CCCCS(=O)(=O)N[C@H](CCC(=O)N1CCC(CCCC2CCNCC2)CC1)C(=O)O
IC50: > 25 µM

Q: Which IC50 value belongs to CCCCS(=O)(=O)N[C@@H](CCC(=O)O)C(=O)N1CCC(CCCC2CCNCC2)CC1 ?
Ans: > 25 µM
